FYI, the data here is from paper PMC12298827.

Experiment: Parent chemical in rat plasma, 90-day study
Type: in vivo
Conditions: Sprague-Dawley, rat, plasma, oral; female, Day 91, 50 mg/kg-day
Procedure: Subchronic (90-day) studies were performed in accordance with current U.S. EPA’s Toxic Substances Control Act Good Laboratory Practice (GLP) Standards, with the following two general exceptions to the GLP guidelines: Analysis of the dose formulations was conducted according to RTI-approved Standard Operating Procedures, and corn oil (the vehicle) was not characterized (certificate of analysis from the vendor is available in the appendices to the final reports). […]
Give measured concentration at 91 day for each item. Keep answers brief.
Numeric answer only, unit ng/mL assumed.

Name the recorded concentration at 91 day of the item O=C(O)C(F)(Cl)C(F)(F)F (centres unmarked) in your answer.
71500

Quote concentration at 91 day reported for FC(F)(F)C(F)(F)C(F)(F)C(F)(F)CCI [PFHI, 1H,1H,2H,2H-Perfluorohexyl iodide] please.
12.2

----------
test system: male and female Sprague–Dawley rats; assay: 90-day subchronic oral gavage toxicity study; assay type: in vivo, rat; settings: 90-day, both sexes, all doses
test-readout: Functional observational battery

>>> result_value("CC(=O)C(F)(F)C(F)(F)C(F)(F)F")
"No changes"
>>> result_value("FC(F)(F)C(F)(F)C(F)(F)C(F)(F)CCI [PFHI, 1H,1H,2H,2H-Perfluorohexyl iodide]")
"No changes"
>>> result_value("O=C(O)C(F)(Cl)C(F)(F)F (stereo not shown)")
"No changes"

----------
system: male and female Sprague–Dawley rats; test: 90-day subchronic oral gavage toxicity study; type: in vivo, rat; conditions: male
test-readout: NOEL, relative liver weight increase (mg/kg-day)
Field: numeric (mg/kg-day). Do not append units.

# assay system male and female Sprague–Dawley rats: give NOEL, relative liver weight increase of FC(F)(F)C(F)(F)C(F)(F)C(F)(F)CCI [PFHI, 1H,1H,2H,2H-Perfluorohexyl iodide]
12.5

Provide measured NOEL, relative liver weight increase on male and female Sprague–Dawley rats for C=CC(=O)OCC(F)(F)C(F)(F)C(F)(F)C(F)(F)C(F)(F)C(F)(F)C(F)(F)C(F)F [PFNAC, 1H,1H,9H-Perfluorononyl acrylate] please.
0.1

Fetch value of NOEL, relative liver weight increase on male and female Sprague–Dawley rats for O=C(O)C(F)(Cl)C(F)(F)F (stereo not shown) .
1.9

----------
test system: male and female Sprague–Dawley rats; assay: 90-day subchronic oral gavage toxicity study; type: in vivo, rat; design: key: NR: no response, no statistically significant dose-dependent changes; conditions: male
test-readout: NOEL, relative kidney weight increase

>>> result_value("CC(=O)C(F)(F)C(F)(F)C(F)(F)F [MHFPK, Methyl heptafluoropropyl ketone]")
"NR"
>>> result_value("C=CC(=O)OCC(F)(F)C(F)(F)C(F)(F)C(F)(F)C(F)(F)C(F)(F)C(F)(F)C(F)F [PFNAC, 1H,1H,9H-Perfluorononyl acrylate]")
"0.3 mg/kg-day"
>>> result_value("O=C(O)C(F)(Cl)C(F)(F)F (stereo not shown) [CTFPA]")
"NR"
>>> result_value("FC(F)(F)C(F)(F)C(F)(F)C(F)(F)CCI [PFHI, 1H,1H,2H,2H-Perfluorohexyl iodide]")
"50 mg/kg-day"

----------
I'd appreciate it if you could supply NOEL, absolute liver weight increase values for the items below.
Tested on: male and female Sprague–Dawley rats
Assay: 90-day subchronic oral gavage toxicity study
Assay type: in vivo, rat
Conditions: male
Protocol: Subchronic (90-day) studies were performed in accordance with current U.S. EPA’s Toxic Substances Control Act Good Laboratory Practice (GLP) Standards, with the following two general exceptions to the GLP guidelines: Analysis of the dose formulations was conducted according to RTI-approved Standard Operating Procedures, and corn oil (the vehicle) was not characterized (certificate of analysis from the vendor is available in the appendices to the final reports). […]
Record the value in mg/kg-day, omitting the unit from your answer.

Consider the compound O=C(O)C(F)(Cl)C(F)(F)F (stereo not shown) [CTFPA] and give its recorded NOEL, absolute liver weight increase.
3.8

For the compound C=CC(=O)OCC(F)(F)C(F)(F)C(F)(F)C(F)(F)C(F)(F)C(F)(F)C(F)(F)C(F)F [PFNAC, 1H,1H,9H-Perfluorononyl acrylate] , report NOEL, absolute liver weight increase.
0.1

Retrieve NOEL, absolute liver weight increase measured for FC(F)(F)C(F)(F)C(F)(F)C(F)(F)CCI [PFHI, 1H,1H,2H,2H-Perfluorohexyl iodide] and print it.
50
